measured.parameter: melting point

Q: What does the record list as melting point for Cl.N[C@@]1(C(=O)OCOC(=O)c2cccc3ccccc23)CC[C@H]2[C@H](C(=O)O)[C@H]21 [Example 17] ?
Result: 212 to 213 °C

Q: Quick check: melting point of CC(C)OC(=O)OCOC(=O)[C@H]1[C@@H]2CC[C@@](N)(C(=O)OCOC(=O)OC(C)C)[C@@H]21.Cl ?
Result: 52 °C

Q: Need melting point of CC(C)OC(=O)OCOC(=O)[C@]1(N)CC[C@H]2[C@H](C(=O)O)[C@H]21.Cl [Example 14] , thanks.
Result: 59 to 60 °C

Q: What does the data say about its melting point? Entry: Cl.N[C@@]1(C(=O)O)CC[C@H]2[C@H](C(=O)OCOC(=O)c3ccccc3)[C@H]21
Result: 230 °C (dec.)

---

measured.parameter: melting point

Q: Which melting point reading was recorded for the compound COC(=O)OCOC(=O)[C@H]1[C@@H]2CC[C@@](N)(C(=O)O)[C@@H]21 ?
Result: 214 to 215 °C

Q: # input compound: CC(C)C(=O)OCOC(=O)[C@H]1[C@@H]2CC[C@@](N)(C(=O)OCOC(=O)C(C)C)[C@@H]21.Cl ; wanted: its melting point
Result: 224 to 226 °C

Q: For Cc1oc(=O)oc1COC(=O)[C@H]1[C@@H]2CC[C@@](N)(C(=O)O)[C@@H]21 , what is its reported melting point?
Result: 180 °C (dec.)

Q: Given the entry CCCC(=O)OCOC(=O)[C@H]1[C@@H]2CC[C@@](N)(C(=O)O)[C@@H]21 , report its measured melting point.
Result: 199 to 200 °C

Q: If you can, please state the reported melting point value of CC(C)(C)C(=O)OCOC(=O)[C@H]1[C@@H]2CC[C@@](N)(C(=O)O)[C@@H]21.Cl .
Result: 258 °C (dec.)

Q: Sample Cl.N[C@@]1(C(=O)OCOC(=O)c2cccc3ccccc23)CC[C@H]2[C@H](C(=O)OCOC(=O)c3cccc4ccccc34)[C@H]21 — what was its melting point?
Result: 92 to 94 °C

Q: Item under review: Cl.N[C@@]1(C(=O)OCOC(=O)c2ccc3ccccc3c2)CC[C@H]2[C@H](C(=O)OCOC(=O)c3ccc4ccccc4c3)[C@H]21 . Reported melting point?
Result: 125 to 127 °C

Q: Fill in the blank: the reported melting point of CC(C)OC(=O)OCOC(=O)[C@H]1[C@@H]2CC[C@@](N)(C(=O)O)[C@@H]21 is ____.
Result: 196 to 197 °C

Q: Given CC(C)(C)C(=O)OCOC(=O)[C@H]1[C@@H]2CC[C@@](N)(C(=O)O)[C@@H]21 , state its recorded melting point.
Result: 205 to 206 °C

Q: Request the reported melting point associated with Cl.N[C@@]1(C(=O)OCOC(=O)c2ccc3ccccc3c2)CC[C@H]2[C@H](C(=O)O)[C@H]21
Result: 184 to 185 °C

Q: Which melting point is listed for Cl.N[C@@]1(C(=O)OCOC(=O)c2ccccc2)CC[C@H]2[C@H](C(=O)OCOC(=O)c3ccccc3)[C@H]21 ?
Result: 73 °C
